Exercise: for every item that follows, state its recorded composite z-score.
test: anti-His antibody binders, primary screen, artefact control for SMM control protein annotation, biochemical, small-molecule microarray, 635 nm fluorescence (AID 1128); conditions: anti-His Alexa647 antibody binding, higher = more signal;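 also: score merges feature fluorescence with signal-to-noise for each printed compound spot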
One number for each entry.

>  <compound>
COCCNC(=O)OCC1CCCC2(CC(OC(=O)NCCc3ccc(F)cc3)CC(CCC(=O)N[C@@H](C)C(=O)OC)O2)O1 (stereo partly specified)

>  <composite z-score>
1

$$$$
>  <compound>
COC(=O)c1c(CC[C@@H](CO)NC(=O)N[C@H](Cc2ccccc2)Cn2cc(-c3ccccc3N)nn2)oc(C(C)=O)c1C(=O)OC

>  <composite z-score>
1.35

$$$$
>  <compound>
CCCCC(=C=CC[C@H](O)c1ccccc1OCCO)C[C@H](O)COCc1ccccc1

>  <composite z-score>
-1.29

$$$$
>  <compound>
N#Cc1ccc(NN2C(C(O)c3cc(C(F)(F)F)cc(C(F)(F)F)c3)C=CC3C(=O)N(c4ccccc4)C(=O)C32)cc1 (stereo unspecified)

>  <composite z-score>
0.94

$$$$
>  <compound>
Cc1ccc(S[C@]2(C(=O)NCC(F)(F)F)CC(=O)N(Cc3ccccc3Cl)[C@@H]2c2ccc(CO)cc2I)cc1

>  <composite z-score>
-1.18

$$$$
>  <compound>
CC(C)[C@@H](OCc1ccccc1)[C@H](C)C=NO[C@H](C)c1cn([C@H](CO)Cc2ccccc2)nn1

>  <composite z-score>
0.424

$$$$
>  <compound>
COC(=O)C1=C(C)[C@@H](O)[C@@H](C)[C@H](c2c(OC)c(OC)c(C)c(OC)c2OC)O1

>  <composite z-score>
0.174

$$$$
>  <compound>
C=CCNC(=O)[C@H]1[C@@H]2C(=O)O[C@@H](c3ccccc3)[C@@H](c3ccccc3)N2[C@@H](c2ccc(O)cc2)[C@]12C(=O)N(C(=O)OCCOC)c1ccc(C#CC3=CCCCC3)cc12

>  <composite z-score>
0.692

$$$$

I would be grateful if you could provide composite z-score for each of the following entries.
1. O=C1CCCC=C1C(O)CCOCc1ccccc1 (stereo unspecified)
2. CN(C)C(=O)[C@@]1(Cc2ccccc2)N=C(c2ccc(OCCCO)cc2)O[C@H]1c1ccccc1CN=[N+]=[N-]
3. C[C@@H](c1ccccc1)N1C(=O)[C@H]2[C@H]3[C@H](O)C=CC(=O)[C@@H]3CC[C@H]2C1=O
4. C[C@@H]1C=CCC(=O)OC[C@H](C)C(=O)OC[C@H]2O[C@H]1C=C[C@H]2O
5. O=C1[C@H]2[C@H]3[C@H](O)[C@H](O)CC(=NO[C@@H]4O[C@H](CO)[C@@H](O)[C@H](O)[C@H]4O)[C@@H]3CC[C@H]2C(=O)N1Cc1ccc2c(c1)OCO2

// result
-0.467
3.27
0.299
-0.31
0.715

---

assay: basal RPMI8226 viability, no added stimulus, profiling panel, cell-based, calcein-AM fluorescence, 48 h, PK04 Diversity Set (AID 1166); conditions: RPMI8226 myeloma viability, higher = more signal;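 also: cells grown under basal conditions without added stimulus; test concentration not given here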
outcome measure: z-score
Numbers only.

>  <structure as smiles>
CCOC(=O)CCN1C(=O)[C@H]2[C@H]3[C@H](O)[C@H](O)CC(=NNC(=O)OCc4ccc(OC)cc4)[C@@H]3CC[C@H]2C1=O

>  <z-score>
0.0819

$$$$
>  <structure as smiles>
CO[C@H]1COC(=O)[C@@H]2CCCN2C(=O)CC=C[C@@H](C)[C@H](OC)COC(=O)CC=C[C@@H]1C

>  <z-score>
0.84

$$$$
>  <structure as smiles>
COC(=O)[C@@H]1N=C(c2ccc(OCCCO)cc2)O[C@@H]1c1ccccc1N=[N+]=[N-]

>  <z-score>
-1.56

$$$$
>  <structure as smiles>
COc1ccc([Si](C)(C)[C@@H]2[C@@H](CCO)O[C@]3(C(=O)N(Cc4ccc(NC(C)=O)cc4)c4ccccc43)[C@H]2C)cc1

>  <z-score>
-3.9

$$$$
>  <structure as smiles>
CCOC(=O)NN=C1C[C@@H](O)[C@@H](O)[C@@H]2[C@@H]3C(=O)N(C4CCCCC4)C(=O)[C@@H]3CC[C@H]12

>  <z-score>
-1.06

$$$$

Go through the items and report each one's z-score.
1. CCOC(=O)CCN1C(=O)[C@H]2[C@H]3[C@H](O)[C@H](O)CC(=NOC[C@@H](O)COCc4ccco4)[C@H]3CC[C@H]2C1=O
2. CCOC(=O)CCN1C(=O)[C@H]2[C@H]3[C@H](O)[C@H](O)CC(=O)[C@H]3CC[C@H]2C1=O

// result
[-2.29, -0.122]

Values compiled from PubChem BioAssay.
